// reported viability at 28.5 h, 10 µM for each item listed
# test.details: in vitro
# condition.notes: human, hela cells, % viability
Form field: result (number plus unit)

[[record]]
compound = "COc1ccccc1Cc1cccc(C2CCCN2C(=O)Cc2c[nH]c3ccccc23)n1 (stereo not shown) [CBK286139]"
reported_value = "95.2%"

[[record]]
compound = "NC(=O)c1ccccc1NC(=S)NC(=O)c1cc2ccccc2o1 [CBK265633]"
reported_value = "81.3%"

[[record]]
compound = "COc1ccccc1/C=N/C12CN3CN(CN(C3)C1)C2 [CBK261387]"
reported_value = "93%"

[[record]]
compound = "COc1ccc2[nH]cc(CCNC(=O)CC(C)O)c2c1 (stereo not shown) [CBK116201]"
reported_value = "106%"

[[record]]
compound = "CC(NC(=O)C1C2C=CC(C2)C1C(=O)O)c1ccccc1 (stereo not shown) [CBK265384]"
reported_value = "109%"


Looking up Cn1c(=O)oc2ccc(C(=O)CSc3nnnn3-c3ccccc3)cc21 [CBK300488] , I found its viability at 28.5 h, 10 µM recorded as 90.1%

Noted for Cc1ccc(C(=O)COC(=O)CCN2C(=O)C3C4CCC(C4)C3C2=O)cc1[N+](=O)[O-] (stereo not shown) [CBK264096] : its viability at 28.5 h, 10 µM reads 91.5%

Form: compound = C/C(Nc1ccc(S(=O)(=O)Nc2nccc(C)n2)cc1)=C1\C(=O)N(c2nc3ccccc3s2)N=C1C(F)(F)F [CBK263002] ; viability at 28.5 h, 10 µM = 90.1%

Note to self: viability at 28.5 h, 10 µM recorded for NC1CCC(NC(=O)c2cnc(-c3ccc(Cl)cc3)c(-c3ccco3)c2)CC1 (stereo not shown) [CBK037563] was 105%

The recorded viability at 28.5 h, 10 µM for entry OCCN1CCN(C(c2ccccc2)c2sc3ncnn3c2O)CC1 (stereo not shown) [CBK287611] equals 82.5%

Entry Cc1cc(C)n(CC(=O)N2CCOC(c3ccccc3Cl)C2)n1 (stereo not shown) [CBK304927] ; viability at 28.5 h, 10 µM = 91.9%

// O=C(Oc1ccccc1)N1CCC(n2c(=O)[nH]c3ccccc32)CC1 [CBK149865] : viability at 28.5 h, 10 µM value = 89%

The compound listed as CCNC(=O)C1(Cc2ccccc2-c2ccncc2)CCOCC1 [CBK285216] has a reported viability at 28.5 h, 10 µM of 100%

Value of measured viability at 28.5 h, 10 µM for the entry CC1=CCCN(C(=O)C23CCOCC2CN(c2ncc(F)cn2)C3)C1 (stereo not shown) [CBK304263] : 87.3%

// viability at 28.5 h, 10 µM lookup, compound = COc1ccc(C(c2ccccc2C)N(C)C(=O)C2CCN(C(C)=O)CC2)cn1 (stereo not shown) [CBK060490] , result: 90.8%

The value of viability at 28.5 h, 10 µM measured for the compound Cc1cc(Cl)ccc1NC(=O)CCC(=O)N/N=C/c1cccnc1 [CBK261945] turned out to be 100%

viability at 28.5 h, 10 µM reading for Cc1cc(-c2cn3cc(C(=O)N4CCCC4)nc3c(=O)n2C)c(C)o1 [CBK307300] : 83.3%

Lab note: Clc1ccc(OCc2nnn[nH]2)c(C2CCCCC2)c1 [CBK270035] gave viability at 28.5 h, 10 µM of 103%

Please fill in: viability at 28.5 h, 10 µM reported for CC(NC(=O)CCc1cnn(C)c1)c1nc(-c2ccncc2)cs1 (stereo not shown) [CBK305496] = 91.4%
